Tested on: SF-268 CNS
assay.protocol: NCI tumour cell line growth inhibition, 48 h
Catalogue of GI50 values

Record excerpt, results attached:
>  <compound>
O=C1NC(=O)C(c2c[nH]c3ccccc23)=C1c1ccccc1

>  <reading>
> 25 µM

$$$$
>  <compound>
OCc1ccc(N(Cc2ccc(F)cc2)CC2CCC2)cc1Cl

>  <reading>
17.1 µM

$$$$

# input Given "O=C(CSc1ncc(-c2ccccc2)n1-c1ccccc1)Nc1ccc(-c2nc3ccccc3s2)cc1" , state its recorded GI50.
# output 3.5 µM

# input Given "CC[C@@]1(O)C(=O)NCc2c1cc1n(c2=O)Cc2cc3c(NC(C)=O)cccc3nc2-1" , state its recorded GI50.
# output > 100 µM

# input Given CNCCN(C)Cc1cn[nH]c1-c1ccc(OC2CC(OCCC3CCOCC3)C2)cc1 (stereo not given) , state its recorded GI50.
# output > 100 µM

# input Given COC1=CC2CCN3Cc4cc5c(cc4C(C1O)C23)OCC5 (stereo not given) , state its recorded GI50.
# output 4.57 µM

# input Given "FC(F)(F)c1ccc(NCc2nc3ccccc3[nH]2)cc1" , state its recorded GI50.
# output 40.8 µM

# input Given "CC(C)[C@H](C(=O)O[C@@H]1/C=C/C(=O)O[C@@H](C)CCC/C=C/[C@@H]2C[C@H](O)C[C@H]21)N(C)C" , state its recorded GI50.
# output 5.25 µM

# input Given "Cc1cc2c(cc1Cl)N1C(=O)NS(=O)(=O)N=C1NS2(=O)=O" , state its recorded GI50.
# output > 100 µM

# input Given "O=C(O)c1cn(C2CC2)c2cc(N3CCN(Cc4ccc5ccccc5c4O)CC3)c(F)cc2c1=O" , state its recorded GI50.
# output 8.13 µM

----------
Catalogue of TGI values
Test system: NCI-H522 lung
assay.protocol: NCI tumour cell line growth inhibition, 48 h

Record excerpt, results attached:
>  <compound>
Cc1ccc(S(=O)(=O)Oc2nc3nc4ccccc4nc3nc2OS(=O)(=O)c2ccc(C)cc2)cc1

>  <tested.on>
NCI-H522 lung

>  <TGI>
> 100 µM

$$$$
>  <compound>
Cc1c(N=Nc2ccc(Cl)cc2)c(C)n(C2OC(CO)C(O)C(O)C2O)c(=S)c1C#N (stereo not given)

>  <tested.on>
NCI-H522 lung

>  <TGI>
49.9 µM

$$$$
>  <compound>
O=C1NC(=O)C(c2c[nH]c3ccccc23)=C1c1ccccc1

>  <tested.on>
NCI-H522 lung

>  <TGI>
> 25 µM

$$$$

# input Given "C[N+](C)(C)CCOP(=O)([O-])OCCNC(=O)c1ccc2ccccc2c1" , state its recorded TGI.
# output > 100 µM

# input Given "CC(=O)N(CCCCNC(=O)C(F)(F)F)CCCNC(=O)C(F)(F)F" , state its recorded TGI.
# output > 100 µM

# input Given CCCCCC1=C2C(c3ccc(OC)cc3)=C(N)C(c3ccc(OC)cc3)=C3NC(=O)C(C=C1)C32 (stereo not given) , state its recorded TGI.
# output 68 µM

# input Given "Cc1c2cc[n+](C)cc2c(C)c2c1oc1ccccc12" , state its recorded TGI.
# output 8.17 µM

# input Given "Nc1c(Br)cc(-c2nc3ccccc3s2)cc1Br" , state its recorded TGI.
# output > 100 µM

# input Given "O=C(CSc1nc2ccc(I)cc2c(=O)n1Cc1ccccc1)NN1C(=O)c2ccccc2C1=O" , state its recorded TGI.
# output 34.1 µM

# input Given CC1CC(Br)C(=O)O1 (stereo not given) , state its recorded TGI.
# output > 100 µM

----------
Tested on: HCC-2998 colon
assay.protocol: NCI tumour cell line growth inhibition, 48 h
Catalogue of TGI values

Record excerpt, results attached:
>  <compound>
C=C(C)CC(C)(c1cc2ccccc2n1C)N1CCOCC1 (stereo not given)

>  <reading>
> 100 µM

$$$$
>  <compound>
O=C(O)COc1ccc(C(=O)/C(SS/C(C(=O)c2ccc(OCC(=O)O)c(Cl)c2Cl)=C2\C=C(c3ccccc3Cl)SS2)=C2/C=C(c3ccccc3Cl)SS2)c(Cl)c1Cl

>  <reading>
> 100 µM

$$$$
>  <compound>
N#C/C(C(=O)Nc1ccc(Cl)cc1)=C(/N)N1CCOCC1

>  <reading>
> 100 µM

$$$$
>  <compound>
Cc1ccc(S(=O)(=O)Oc2nc3nc4ccccc4nc3nc2OS(=O)(=O)c2ccc(C)cc2)cc1

>  <reading>
> 100 µM

$$$$

# input Given COC(=O)C1(C)CCCC2(C)c3cc(OC)ccc3C(=O)C(Br)C12 (stereo not given) , state its recorded TGI.
# output > 10 µM

# input Given CC1CC(Br)C(=O)O1 (stereo not given) , state its recorded TGI.
# output > 100 µM

# input Given "C#Cc1ccc(-n2c(/C=C/c3ccc4ccccc4c3)nc3ncccc3c2=O)cc1" , state its recorded TGI.
# output 5.04 µM

# input Given "CCCCCC(=Nc1n[nH]nc1C(N)=O)OCC" , state its recorded TGI.
# output > 100 µM

# input Given "Nc1nnc2oc3ccc4ccccc4c3cc1-2" , state its recorded TGI.
# output 77.4 µM

# input Given COC1=CC(=O)C2C(C1=O)C(c1ccc(Cl)cc1)[C@@H]2C (stereo not given in full) , state its recorded TGI.
# output > 100 µM

# input Given "CSc1ccc(/C=C2\N=C(c3ccccc3)N(/N=C3\C(=O)Nc4ccccc43)C2=O)cc1" , state its recorded TGI.
# output > 100 µM

# input Given "COc1cc(-c2nn(-c3cccc(NC(=O)CCN4CCN(C)CC4)c3)cc2-c2ccncc2)ccc1Cl" , state its recorded TGI.
# output 3.79 µM

# input Given "Cc1ccc(NC(=O)C(=O)CC(=O)c2ccccc2)cc1C" , state its recorded TGI.
# output > 100 µM

# input Given "O=C(c1ccco1)c1c(C(F)(F)F)n([O-])c2ccc(F)cc2[n+]1=O" , state its recorded TGI.
# output 2.02 µM

# input Given CCCCc1ccc(Nc2nc(Cl)c3ncn(C4CC(Oc5ccc(C)cc5)C(COc5ccc(C)cc5)O4)c3n2)cc1 (stereo not given) , state its recorded TGI.
# output > 100 µM

# input Given O=C1CSC(c2ccccc2O)N1c1nc2cc3sc(N4C(=O)CSC4c4ccccc4O)nc3cc2s1 (stereo not given) , state its recorded TGI.
# output > 100 µM

# input Given C[n+]1c2ccccc2c(CNC(CS)C(=O)O)c2ccccc21 (stereo not given) , state its recorded TGI.
# output > 100 µM

# input Given "COc1cc(/C=C/c2cc(O)c(C/C=C(\C)CC/C=C(\C)CO)c(O)c2)cc2c1O[C@]1(C)CC[C@@H](O)C(C)(C)[C@H]1C2" , state its recorded TGI.
# output 39.6 µM

# input Given COc1cc([N+](=O)[O-])ccc1N1C(=O)C2c3[nH]c4ccccc4c3C3CCC(C(C)(C)C)CC3C2C1=O (stereo not given) , state its recorded TGI.
# output > 100 µM

# input Given Cc1ccc([N+](=O)[O-])cc1S(=O)(=O)Nc1ccc(C2=NOC(c3ccccc3O)C2)cc1 (stereo not given) , state its recorded TGI.
# output 24.8 µM

# input Given "COc1ccc2c(c1)C(=O)c1c-2c(N2CCN(C(=O)CCNCCNCCO)CC2)nc2ccccc12" , state its recorded TGI.
# output 30.1 µM

# input Given "O=C1C(Br)=CC2(C=C1Br)CCNc1c(O)c3c4c(c12)=NCCC=4C=N3" , state its recorded TGI.
# output 1.21 µM

# input Given "CCO[C@]12CCC[C@H]1[C@@H]1C(=O)c3ccccc3C(=O)C1=C(C)O2" , state its recorded TGI.
# output > 100 µM

# input Given C[N+](C)(C)CCN[N+]1(C)CCCc2ccccc21 (stereo not given) , state its recorded TGI.
# output > 100 µM

# input Given COC(=O)C(/C(=N/N)C(=O)Nc1cccc(O)c1)c1nc2ccccc2[nH]c1=O (stereo not given) , state its recorded TGI.
# output > 100 µM

# input Given "CC1(C)OC(=O)C(=Cc2ccc([N+](=O)[O-])s2)C(=O)O1" , state its recorded TGI.
# output 24.7 µM

# input Given "Cc1cc(N)cc(C)c1-c1c(Br)cc(N)cc1Br" , state its recorded TGI.
# output 16.6 µM

# input Given "O=C(CSc1ncc(-c2ccccc2)n1-c1ccccc1)Nc1ccc(-c2nc3ccccc3s2)cc1" , state its recorded TGI.
# output > 100 µM

# input Given "O=C(O)c1nc2ccccc2nc1NCc1ccc(F)cc1" , state its recorded TGI.
# output > 100 µM

----------
System: MDA-N
assay.protocol: NCI tumour cell line growth inhibition, 48 h
observed.property: TGI (µM)
The figure you give is taken to be in µM; do not add the unit.

>  <chem.smiles>
COc1ccc2nc3c([N+](=O)[O-])ccc(NCCN(C)C)c3c(NCCN(C)C)c2c1

>  <TGI (µM)>
3.13

$$$$
>  <chem.smiles>
COC(=O)/C=C1\CCCN1CCc1cc2c(cc1CC#N)OCO2

>  <TGI (µM)>
45.6

$$$$
>  <chem.smiles>
O=C(Nc1ncc([N+](=O)[O-])s1)c1ccccc1O

>  <TGI (µM)>
99.4

$$$$

Now examine the next entry.
# input Given "Cc1c2cc[n+](C)cc2c(C)c2c1oc1ccccc12" , state its recorded TGI.
# output 23.8
